All figures here come from patent US20220356174A1.

- Tested on: various lung cancer cell lines
- testMethodNotes: Long term proliferation (LTP) assay in various cancer cell lines
- Type: cell-based
- details: Homo sapiens, NCI-H1838, NCIH1838; SMARCA4 protein Present; Lung NSCLC non-small cell lung cancer
propertyLabel: IC50 (nM)
# unit: nM | format: bare number

## Input Dear colleague, I am looking for the recorded IC50 of the following compound: `N#Cc1sc(C(=O)Nc2cc(F)c(=O)n(CCF)c2)cc1Cl`
## Output 587

---

- testSystem: FL-SMARCA2 (full-length human SMARCA2 isoform 1) (Homo sapiens)
- Construct: FLAG tag (YKDDDDK) (C); made in house; host or cells: Sf21 insect cells (baculovirus, pFastBacI)
- Sequence (P51531 with tags, fused parts or gaps): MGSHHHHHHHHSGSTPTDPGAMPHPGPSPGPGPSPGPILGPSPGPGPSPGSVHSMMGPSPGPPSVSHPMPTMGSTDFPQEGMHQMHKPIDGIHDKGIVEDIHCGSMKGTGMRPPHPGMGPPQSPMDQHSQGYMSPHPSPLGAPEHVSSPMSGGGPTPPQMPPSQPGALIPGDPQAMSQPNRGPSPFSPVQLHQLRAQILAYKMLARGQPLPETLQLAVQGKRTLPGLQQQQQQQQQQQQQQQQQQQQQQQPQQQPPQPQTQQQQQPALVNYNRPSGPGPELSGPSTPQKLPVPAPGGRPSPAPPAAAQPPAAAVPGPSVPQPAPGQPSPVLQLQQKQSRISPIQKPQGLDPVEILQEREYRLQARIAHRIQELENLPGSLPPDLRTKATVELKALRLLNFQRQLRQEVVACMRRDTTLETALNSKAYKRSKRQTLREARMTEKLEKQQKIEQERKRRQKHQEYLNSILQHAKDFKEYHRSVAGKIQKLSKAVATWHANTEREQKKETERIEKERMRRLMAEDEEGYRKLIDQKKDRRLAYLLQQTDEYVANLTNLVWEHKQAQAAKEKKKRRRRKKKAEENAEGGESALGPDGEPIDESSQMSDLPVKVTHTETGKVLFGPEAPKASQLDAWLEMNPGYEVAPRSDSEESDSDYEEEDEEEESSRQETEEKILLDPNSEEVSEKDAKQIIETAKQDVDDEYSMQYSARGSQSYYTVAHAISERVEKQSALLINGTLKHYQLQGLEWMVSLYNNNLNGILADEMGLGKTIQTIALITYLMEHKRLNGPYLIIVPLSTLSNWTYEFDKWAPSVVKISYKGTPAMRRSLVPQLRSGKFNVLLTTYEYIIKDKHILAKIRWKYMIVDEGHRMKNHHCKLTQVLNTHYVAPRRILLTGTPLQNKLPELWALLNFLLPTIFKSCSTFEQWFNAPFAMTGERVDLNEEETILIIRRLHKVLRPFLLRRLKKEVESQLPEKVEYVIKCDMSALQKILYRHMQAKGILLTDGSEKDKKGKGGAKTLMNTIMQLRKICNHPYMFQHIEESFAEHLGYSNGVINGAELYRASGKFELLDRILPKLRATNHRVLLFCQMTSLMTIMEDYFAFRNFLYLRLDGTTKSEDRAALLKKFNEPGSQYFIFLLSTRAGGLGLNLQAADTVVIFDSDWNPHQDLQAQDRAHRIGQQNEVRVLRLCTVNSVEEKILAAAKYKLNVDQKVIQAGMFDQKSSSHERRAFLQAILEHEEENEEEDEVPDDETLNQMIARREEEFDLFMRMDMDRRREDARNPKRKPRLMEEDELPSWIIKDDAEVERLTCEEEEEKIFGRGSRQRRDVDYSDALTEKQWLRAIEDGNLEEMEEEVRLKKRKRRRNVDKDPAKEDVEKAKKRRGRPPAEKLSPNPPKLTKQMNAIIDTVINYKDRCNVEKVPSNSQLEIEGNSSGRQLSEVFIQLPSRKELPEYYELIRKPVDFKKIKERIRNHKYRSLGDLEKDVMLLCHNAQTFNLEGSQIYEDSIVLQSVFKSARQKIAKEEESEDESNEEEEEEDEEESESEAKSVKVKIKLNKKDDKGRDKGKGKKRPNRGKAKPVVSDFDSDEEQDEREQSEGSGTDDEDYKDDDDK
- testMethodNotes: SMARCA2 ATPase activity assay (ADP-Glo, chicken mononucleosome substrate)
- Format: biochemical
- details: Table 3c.1; ATPase assay, enzyme 5 nM, ATP 250 uM, chicken mononucleosome 10 nM, 30 min preincubation
- Experimental: Molecular Biology: Full-length human SMARCA2 isoform 1 (P51531) transcript clone was amplified from a cDNA library incorporating an N-terminal HIS tag ([…]) fused directly to Ser2 of SMARCA2 and a C-FLAG tag (YKDDDDK) fused directly to Glu1590 of SMARCA2. […] Expressed full-length SMARCA2 was purified from cell paste by FLAG affinity chromatography followed by anion exchange chromatography. […] The purity of the protein was measured as 74% using micro-capillary based gel electrophoresis.
Mark fulfilled only for IC50 values smaller than 0.1 µM; exact matches and larger values are not fulfilled.

[
  {
    "molecule": "O=C(Nc1cc(F)c(=O)n(CC(F)F)c1)c1cnc(C#Cc2ccncc2)s1 [Compound 33c]",
    "className": "not fulfilled"
  },
  {
    "molecule": "O=C(Nc1cc(F)c(=O)n(CC(F)F)c1)[C@@H]1CCCN1 [Compound 15c]",
    "className": "not fulfilled"
  },
  {
    "molecule": "CNC(=O)c1cncc(C#Cc2cc(C(=O)Nc3cc(F)c(=O)n(CC(F)F)c3)sc2Cl)c1 [Compound 129c]",
    "className": "fulfilled"
  },
  {
    "molecule": "O=C(Nc1cc(F)c(=O)n(CC(F)CO)c1)c1cc(Cl)c(Cl)s1 (centres unmarked) [Compound 50c]",
    "className": "not fulfilled"
  }
]

## Input IC50 under 0.1 µM? Item: CS(=O)(=O)c1cccc(C#Cc2cc(C(=O)Nc3cc(F)c(=O)n(CC(F)F)c3)sc2Cl)c1 [Compound 98c]
## Output not fulfilled

## Input IC50 under 0.1 µM? Item: C[S+]([O-])c1cc(C(=O)Nc2cc(F)c(=O)n(CC(F)F)c2)sc1Cl (centres unmarked) [Compound 2c]
## Output not fulfilled

## Input IC50 under 0.1 µM? Item: O=C(Nc1cc(F)c(=O)n(CC(F)F)c1)c1cc(F)c(C(F)(F)F)s1 [Compound 25c]
## Output fulfilled

---

- testSystem: UniProtKB P51532
- Sequence (P51532 whole entry): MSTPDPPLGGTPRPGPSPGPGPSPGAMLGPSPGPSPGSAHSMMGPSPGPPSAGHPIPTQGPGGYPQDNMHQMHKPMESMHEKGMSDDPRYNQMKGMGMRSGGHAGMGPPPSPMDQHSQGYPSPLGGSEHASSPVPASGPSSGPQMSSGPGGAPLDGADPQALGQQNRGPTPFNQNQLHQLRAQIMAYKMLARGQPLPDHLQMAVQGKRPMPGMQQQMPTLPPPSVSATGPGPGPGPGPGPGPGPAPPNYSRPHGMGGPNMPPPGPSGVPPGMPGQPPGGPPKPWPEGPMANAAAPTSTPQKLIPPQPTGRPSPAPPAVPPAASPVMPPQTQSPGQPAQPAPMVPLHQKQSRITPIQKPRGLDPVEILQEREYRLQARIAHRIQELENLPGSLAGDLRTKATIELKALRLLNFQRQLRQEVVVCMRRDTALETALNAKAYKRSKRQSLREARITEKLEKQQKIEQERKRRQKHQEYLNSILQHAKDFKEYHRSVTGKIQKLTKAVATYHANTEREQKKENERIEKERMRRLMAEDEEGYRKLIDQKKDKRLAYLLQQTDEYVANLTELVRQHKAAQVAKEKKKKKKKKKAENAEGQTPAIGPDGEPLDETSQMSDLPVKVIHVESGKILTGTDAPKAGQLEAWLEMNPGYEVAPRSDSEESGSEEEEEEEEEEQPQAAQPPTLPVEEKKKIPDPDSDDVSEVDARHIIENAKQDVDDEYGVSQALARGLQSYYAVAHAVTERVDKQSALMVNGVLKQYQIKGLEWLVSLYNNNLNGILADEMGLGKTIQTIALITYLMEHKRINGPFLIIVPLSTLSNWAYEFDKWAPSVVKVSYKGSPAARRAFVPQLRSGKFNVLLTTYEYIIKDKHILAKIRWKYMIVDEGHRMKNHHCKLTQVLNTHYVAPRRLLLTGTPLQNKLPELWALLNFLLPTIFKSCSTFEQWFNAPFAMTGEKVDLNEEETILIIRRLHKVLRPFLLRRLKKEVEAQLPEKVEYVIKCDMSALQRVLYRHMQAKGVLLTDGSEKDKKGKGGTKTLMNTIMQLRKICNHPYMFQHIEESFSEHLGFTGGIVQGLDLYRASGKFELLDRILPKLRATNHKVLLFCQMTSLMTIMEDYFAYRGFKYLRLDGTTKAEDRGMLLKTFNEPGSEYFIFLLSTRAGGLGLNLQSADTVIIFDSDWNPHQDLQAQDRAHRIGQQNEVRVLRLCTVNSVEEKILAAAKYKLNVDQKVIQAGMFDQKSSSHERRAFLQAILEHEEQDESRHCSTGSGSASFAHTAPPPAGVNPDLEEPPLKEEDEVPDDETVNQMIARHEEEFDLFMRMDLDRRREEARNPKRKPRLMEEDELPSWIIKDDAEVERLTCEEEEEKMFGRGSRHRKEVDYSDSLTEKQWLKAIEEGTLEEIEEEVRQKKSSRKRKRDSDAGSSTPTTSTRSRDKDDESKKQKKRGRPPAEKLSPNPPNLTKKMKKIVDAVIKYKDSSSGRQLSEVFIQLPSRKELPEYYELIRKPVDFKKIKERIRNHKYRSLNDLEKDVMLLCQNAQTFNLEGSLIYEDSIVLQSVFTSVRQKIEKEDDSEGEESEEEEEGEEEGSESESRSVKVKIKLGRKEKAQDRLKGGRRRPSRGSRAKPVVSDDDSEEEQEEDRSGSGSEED
- testMethodNotes: SMARCA4 ATPase activity assay (ADP-Glo, chicken mononucleosome substrate)
- details: FL-SMARCA4 IC50
Items are presented alongside their recorded IC50.
# unit: µM | format: bare number

Use these answered entries as a reference point.
[
  {
    "compound": "N#Cc1cc(C(=O)Nc2cc(F)c(=O)n(CC(F)F)c2)sc1C(F)F [Compound 69d]",
    "IC50 [µM]": 0.12
  },
  {
    "compound": "O=C(Nc1cc(F)c(=O)n(CC(F)F)c1)c1cc(C#C[C@H]2C[C@@H](CO)C2)c(Cl)s1 [Compound 134d]",
    "IC50 [µM]": 0.0587
  },
  {
    "compound": "Cc1cc(C#Cc2cc(C(=O)Nc3cc(C#N)c(=O)n(CC(F)F)c3)sc2Cl)sn1 [Compound 92d]",
    "IC50 [µM]": 0.155
  },
  {
    "compound": "Cc1sc(C(=O)Nc2cc(F)c(=O)n(CC(F)F)c2)cc1C#N [Compound 81d]",
    "IC50 [µM]": 0.241
  },
  {
    "compound": "O=C(Nc1cc(F)c(=O)n(CC(F)F)c1)c1cc(C#Cc2ccc3ccnn3c2)c(Cl)s1 [Compound 122d]",
    "IC50 [µM]": 0.835
  }
]

Now for another entry.
## Input Identify the measured IC50 of O=C(Nc1cc(F)c(=O)n(CC(F)F)c1)c1cc(C#CC2CCNC2)c(Cl)s1 (stereo not shown) [Compound 106d] for UniProtKB P51532.
## Output 5.63
